Overview of recorded inhibition at 10 µM for various compounds
# target_or_system: CYP3A4 (Homo sapiens)
# Sequence (P08684 whole entry): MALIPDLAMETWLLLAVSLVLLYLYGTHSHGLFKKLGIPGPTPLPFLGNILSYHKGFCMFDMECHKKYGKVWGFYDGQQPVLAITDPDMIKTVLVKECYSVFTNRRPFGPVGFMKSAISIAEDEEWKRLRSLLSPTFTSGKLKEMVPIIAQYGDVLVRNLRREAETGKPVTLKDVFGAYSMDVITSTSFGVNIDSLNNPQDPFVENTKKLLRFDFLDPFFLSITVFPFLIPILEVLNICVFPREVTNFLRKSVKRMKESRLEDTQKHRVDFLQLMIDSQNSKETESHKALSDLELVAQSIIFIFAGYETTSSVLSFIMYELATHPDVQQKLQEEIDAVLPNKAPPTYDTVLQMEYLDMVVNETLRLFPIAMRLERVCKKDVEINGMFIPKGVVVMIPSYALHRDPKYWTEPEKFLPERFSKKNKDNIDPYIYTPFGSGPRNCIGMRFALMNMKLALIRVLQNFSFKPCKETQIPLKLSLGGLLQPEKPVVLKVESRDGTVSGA
# procedure_summary: in vitro
# Design: cytochrome P450 isoform inhibition liability assay
measured_parameter: inhibition at 10 µM (%)

>>> val("Nc1nnc(-c2ccccc2Cc2ccccc2)s1")
47.5
>>> val("COc1ccc(CNc2nnc(N)s2)cc1OC")
18.6
>>> val("C[C@@H](c1cccc(C(=O)c2ccccc2)c1)c1nnc(N)s1")
94.5
>>> val("Cc1ccc(CNc2nnc(N)s2)cc1")
26.9
>>> val("COc1cccc(CNc2nnc(N)s2)c1")
87.7
>>> val("Nc1nnc(NCc2ccc(F)cc2)s1")
11.2
>>> val("N#Cc1ccc(CNc2nnc(N)s2)cc1")
7.2
>>> val("Nc1cccc(-c2nnc(N)s2)c1")
-14.9
>>> val("Nc1nnc(NCc2cccs2)s1")
-2.6
>>> val("NCc1ccc(-c2nnc(N)s2)cc1")
23.7
>>> val("Nc1nnc(NCc2ccccc2Cl)s1")
10.1
>>> val("Nc1nnc(Cc2cccs2)s1")
17.2
>>> val("Nc1nnc(-c2ccccc2)s1")
82.6
>>> val("Nc1nnc(Cc2ccc3ccccc3c2)s1")
-3.2
>>> val("Nc1nnc(-c2cccc(Br)c2)s1")
-14.1
>>> val("CN(C)C(=O)NCc1cccc(-c2nnc(N)s2)c1")
4.5

* * *

# target_or_system: CYP2D6 (Homo sapiens)
# procedure_summary: in vitro
# Set-up: cytochrome P450 isoform inhibition liability assay
Overview of recorded IC50 for various compounds
measured_parameter: IC50 (µM)

>>> val("Nc1nnc(NCc2ccc(-c3ccccc3)cc2)s1")
11.5
>>> val("Nc1nnc(NCCc2cccs2)s1")
12.4

* * *

# target_or_system: CYP1A2 (Homo sapiens, UniProt P05177)
# Sequence (P05177 1-516): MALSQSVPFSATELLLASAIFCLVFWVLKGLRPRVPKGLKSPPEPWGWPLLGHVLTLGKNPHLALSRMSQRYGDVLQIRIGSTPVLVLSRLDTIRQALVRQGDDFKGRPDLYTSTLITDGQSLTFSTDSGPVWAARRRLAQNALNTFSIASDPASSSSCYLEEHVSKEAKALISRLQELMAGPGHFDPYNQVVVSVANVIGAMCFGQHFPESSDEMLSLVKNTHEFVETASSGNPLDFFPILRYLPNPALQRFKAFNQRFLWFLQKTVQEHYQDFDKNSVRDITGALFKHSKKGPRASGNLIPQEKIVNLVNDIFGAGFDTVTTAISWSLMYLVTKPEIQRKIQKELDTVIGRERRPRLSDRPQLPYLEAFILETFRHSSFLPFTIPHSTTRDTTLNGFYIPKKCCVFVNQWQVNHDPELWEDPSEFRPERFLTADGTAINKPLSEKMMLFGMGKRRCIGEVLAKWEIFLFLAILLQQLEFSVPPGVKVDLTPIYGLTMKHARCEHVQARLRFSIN
# procedure_summary: in vitro
# Set-up: cytochrome P450 isoform inhibition liability assay
Output Yes for inhibition at 10 µM not less than 20%; output No otherwise.

>>> group("Nc1nnc(-c2cc(O)c(O)c(O)c2)s1")
"Yes"
>>> group("Nc1nnc(NCc2ccc(Cl)c(Cl)c2)s1")
"Yes"
>>> group("Nc1nnc(-c2cccc([N+](=O)[O-])c2)s1")
"Yes"
>>> group("Nc1nnc(-c2ccc(O)c(O)c2)s1 [1d, 3′,4′-dihydroxy-phenyl-1,3,4-thiadiazole]")
"No"
>>> group("Nc1nnc(Cc2ccccc2)s1")
"No"
>>> group("Nc1nnc(-c2cccc(-c3ccc(C(F)(F)F)cc3)c2)s1")
"Yes"
>>> group("N#Cc1ccc(CNc2nnc(N)s2)cc1")
"No"
>>> group("Nc1nnc(-c2cccc(-c3cccc(C(F)(F)F)c3)c2)s1")
"Yes"
>>> group("Nc1nnc(-c2ccco2)s1")
"No"
>>> group("Nc1nnc(-c2cccc(-c3ccc4c(c3)OCO4)c2)s1")
"Yes"
>>> group("COc1ccc(-c2ccc(-c3nnc(N)s3)nc2)cc1")
"Yes"
>>> group("Nc1nnc(NCc2ccc(F)cc2)s1")
"Yes"
>>> group("COCCCNc1nnc(N)s1")
"No"
>>> group("Nc1nnc(Cc2cccs2)s1")
"Yes"
>>> group("COc1cccc(CNc2nnc(N)s2)c1")
"No"
>>> group("Nc1nnc(-c2ccccc2)s1")
"Yes"
>>> group("Nc1nnc(Cc2ccc3ccccc3c2)s1")
"No"
>>> group("Nc1nnc(-c2cccc(Br)c2)s1")
"Yes"
>>> group("Nc1nnc(Cc2cccc([N+](=O)[O-])c2)s1")
"No"
>>> group("Nc1nnc(-c2ccc(-c3ccccc3)cc2)s1")
"Yes"
>>> group("Nc1nnc(N)s1")
"Yes"
>>> group("Nc1nnc(NCc2ccc(C(F)(F)F)cc2)s1")
"Yes"
>>> group("Nc1cccc(-c2nnc(N)s2)c1")
"No"
>>> group("COc1ccccc1-c1nnc(N)s1")
"Yes"
>>> group("CN(C)CCc1nnc(N)s1")
"No"
>>> group("COc1cc(-c2nnc(N)s2)cc(OC)c1OC")
"No"
>>> group("Nc1nnc(NCc2ccccc2Cl)s1")
"Yes"
>>> group("Cc1ccc(CNc2nnc(N)s2)cc1")
"No"
>>> group("Nc1nnc(NCc2cccs2)s1")
"No"
>>> group("COc1ccc(-c2nnc(N)s2)cc1OC")
"No"
>>> group("COC(=O)C(Cc1ccccc1)Nc1nnc(N)s1 (stereo not drawn)")
"No"
>>> group("Nc1nnc(-c2ccc(Cl)c(Cl)c2)s1")
"Yes"
>>> group("Nc1nnc(-c2ccccc2Cc2ccccc2)s1")
"Yes"
>>> group("COc1ccc(-c2cccc(-c3nnc(N)s3)c2)cc1OC")
"Yes"
>>> group("Nc1cccc(-c2ccc(-c3nnc(N)s3)cc2)c1")
"Yes"
>>> group("Nc1nnc(-c2cccc(-c3ccccc3)c2)s1")
"Yes"
>>> group("Nc1nnc(/C=C/c2ccccc2)s1")
"Yes"
>>> group("Nc1nnc(-c2ccc(OCc3ccc(Cl)c(Cl)c3)cc2)s1")
"Yes"
>>> group("Cc1nnc(N)s1")
"No"
>>> group("NCc1ccc(-c2nnc(N)s2)cc1")
"No"
>>> group("C[C@@H](c1cccc(C(=O)c2ccccc2)c1)c1nnc(N)s1")
"No"

* * *

# target_or_system: CYP2D6 (Homo sapiens, UniProt P10635)
# Sequence (P10635 whole entry): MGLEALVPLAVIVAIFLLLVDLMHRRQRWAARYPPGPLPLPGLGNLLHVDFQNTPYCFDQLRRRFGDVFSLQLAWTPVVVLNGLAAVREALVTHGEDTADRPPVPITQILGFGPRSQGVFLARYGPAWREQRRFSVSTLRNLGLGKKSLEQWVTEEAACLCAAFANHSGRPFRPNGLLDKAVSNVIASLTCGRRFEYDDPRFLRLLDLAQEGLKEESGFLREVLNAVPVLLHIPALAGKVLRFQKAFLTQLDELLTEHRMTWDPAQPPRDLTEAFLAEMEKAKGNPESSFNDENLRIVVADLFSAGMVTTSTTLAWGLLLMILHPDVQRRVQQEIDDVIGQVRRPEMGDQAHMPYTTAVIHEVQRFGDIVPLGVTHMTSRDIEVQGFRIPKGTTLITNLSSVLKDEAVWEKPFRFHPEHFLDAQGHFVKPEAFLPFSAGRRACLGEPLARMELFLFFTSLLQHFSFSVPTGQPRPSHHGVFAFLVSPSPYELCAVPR
# procedure_summary: in vitro
# Design: cytochrome P450 isoform inhibition liability assay
Overview of recorded inhibition at 10 µM for various compounds
measured_parameter: inhibition at 10 µM

>>> val("COc1cccc(CNc2nnc(N)s2)c1")
"105%"
>>> val("COc1ccccc1-c1nnc(N)s1")
"-31.5%"
>>> val("CN(C)C(=O)NCc1cccc(-c2nnc(N)s2)c1")
"20.4%"
>>> val("Nc1nnc(N2CCC(Cc3ccccc3)CC2)s1")
"82.7%"
>>> val("COc1ccc(-c2ccc(-c3nnc(N)s3)nc2)cc1")
"8.9%"
>>> val("Nc1cccc(-c2ccc(-c3nnc(N)s3)cc2)c1")
"-16.1%"
>>> val("Cc1ccc(CNc2nnc(N)s2)cc1")
"98.7%"
>>> val("Nc1nnc(-c2ccc(Cl)c(Cl)c2)s1")
"52.7%"
>>> val("Nc1nnc(-c2ccco2)s1")
"-47.6%"
>>> val("COc1ccc(-c2cccc(-c3nnc(N)s3)c2)cc1OC")
"19.2%"
>>> val("Nc1nnc(-c2cccc([N+](=O)[O-])c2)s1")
"-49.3%"
>>> val("COc1cc(-c2nnc(N)s2)cc(OC)c1OC")
"-37.2%"
>>> val("Nc1nnc(Cc2ccccc2)s1")
"-41.7%"
>>> val("Cc1nnc(N)s1")
"-46%"
>>> val("Nc1nnc(Cc2cccs2)s1")
"29.6%"
>>> val("Nc1nnc(Cc2ccc3ccccc3c2)s1")
"-31.7%"
>>> val("Nc1nnc(NCCCc2ccccc2)s1")
"100%"
>>> val("Nc1nnc(-c2cccc(-c3ccc(C(F)(F)F)cc3)c2)s1")
"20%"
>>> val("Nc1nnc(NCc2ccccc2Cl)s1")
"90.3%"
>>> val("Nc1nnc(-c2ccc(-c3ccccc3)cc2)s1")
"45.4%"
>>> val("Nc1nnc(-c2cccc(-c3ccc4c(c3)OCO4)c2)s1")
"27%"
>>> val("Nc1nnc(-c2cccc(Br)c2)s1")
"-45.1%"
>>> val("C[C@@H](c1cccc(C(=O)c2ccccc2)c1)c1nnc(N)s1")
"-12.7%"
>>> val("Nc1nnc(CCC(=O)c2cccs2)s1")
"-20.6%"
>>> val("COc1ccc(CNc2nnc(N)s2)cc1OC")
"36.5%"
>>> val("Nc1nnc(NCc2ccc(F)cc2)s1")
"103%"
>>> val("Nc1nnc(-c2ccccc2)s1")
"-8.5%"

* * *

Overview of recorded inhibition at 50 µM for various compounds
# target_or_system: TbPTR1 (Trypanosoma brucei brucei, UniProt O76290)
# Construct: made in house
# Sequence (O76290 1-268): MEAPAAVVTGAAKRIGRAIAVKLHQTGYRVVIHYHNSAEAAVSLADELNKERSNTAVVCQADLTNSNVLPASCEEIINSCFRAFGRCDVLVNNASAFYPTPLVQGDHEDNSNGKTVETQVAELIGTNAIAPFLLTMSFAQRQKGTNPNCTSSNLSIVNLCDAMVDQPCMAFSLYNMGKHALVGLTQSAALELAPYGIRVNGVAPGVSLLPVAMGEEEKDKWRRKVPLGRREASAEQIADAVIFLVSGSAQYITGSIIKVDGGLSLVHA
# procedure_summary: biochemical
# run_parameters: 50 μM compound; read-out: % Inhibition TbPTR1 at 50 μM
measured_parameter: inhibition at 50 µM (%)

>>> val("Nc1nnc(-c2cccc(Br)c2)s1")
34.2
>>> val("Nc1nnc(NCc2cccs2)s1")
50.6
>>> val("COc1ccc(CNc2nnc(N)s2)cc1OC")
8.4
>>> val("CN(C)C(=O)NCc1cccc(-c2nnc(N)s2)c1")
2.5
>>> val("N#Cc1ccc(CNc2nnc(N)s2)cc1")
34.6
>>> val("Nc1nnc(N2CCC(Cc3ccccc3)CC2)s1")
8.4
>>> val("Cc1ccc(CNc2nnc(N)s2)cc1")
18.6
>>> val("Nc1nnc(N)s1")
14.2
>>> val("Cc1nnc(N)s1")
5.4
>>> val("Nc1nnc(-c2cccc([N+](=O)[O-])c2)s1")
15.6
>>> val("Nc1nnc(Cc2ccccc2)s1")
8.1
>>> val("Nc1nnc(-c2ccc(-c3ccccc3)cc2)s1")
10.8
>>> val("Nc1nnc(-c2cccc(-c3cccc(C(F)(F)F)c3)c2)s1")
4.6
>>> val("Nc1nnc(-c2ccc(-c3nnc(N)s3)c(N)c2)s1")
23.4
>>> val("C[C@@H](c1cccc(C(=O)c2ccccc2)c1)c1nnc(N)s1")
47.2
>>> val("Nc1cccc(-c2nnc(N)s2)c1")
27
>>> val("Nc1nnc(NCCc2cccs2)s1")
79.8
>>> val("COc1cccc(OC)c1-c1nnc(N)s1")
14.1
>>> val("COc1ccc(-c2ccc(-c3nnc(N)s3)nc2)cc1")
8.3
>>> val("Nc1nnc(-c2ccc(Cl)c(Cl)c2)s1")
15.6
>>> val("Nc1nnc(NCc2ccccc2Cl)s1")
21.8
>>> val("Nc1nnc(NCc2ccc(-c3ccccc3)cc2)s1")
73
>>> val("COc1cc(-c2nnc(N)s2)cc(OC)c1OC")
13.5
>>> val("Nc1nnc(Cc2ccc3ccccc3c2)s1")
20.9
>>> val("Nc1cccc(-c2ccc(-c3nnc(N)s3)cc2)c1")
16.2
>>> val("COc1ccc(-c2cccc(-c3nnc(N)s3)c2)cc1OC")
8.6
>>> val("Nc1nnc(NCc2ccccc2)s1")
39.5
>>> val("Nc1nnc(-c2cccc(-c3ccccc3)c2)s1")
25.2
>>> val("CN(C)C(=O)NCc1ccc(-c2nnc(N)s2)cc1")
5.3
>>> val("Nc1nnc(CCC(=O)c2ccccc2)s1")
12.9
>>> val("Nc1nnc(-c2cc(O)c(O)c(O)c2)s1")
44.9
>>> val("Nc1nnc(NCCc2ccccc2)s1")
36.7
>>> val("Nc1nnc(-c2ccc(O)c(O)c2)s1 [1d, 3′,4′-dihydroxy-phenyl-1,3,4-thiadiazole]")
16.7
>>> val("COc1ccc(-c2nnc(N)s2)cc1OC")
9.4
>>> val("Nc1nnc(NCCCc2ccccc2)s1")
30
>>> val("Nc1nnc(NCc2ccc(C(F)(F)F)cc2)s1")
37.7
>>> val("COCCCNc1nnc(N)s1")
11.8
>>> val("Nc1nnc(-c2cccc(-c3ccc4c(c3)OCO4)c2)s1")
4
>>> val("Nc1nnc(CCC(=O)c2cccs2)s1")
26
>>> val("Nc1nnc(Cc2cccs2)s1")
18.5
>>> val("Nc1nnc(NCc2ccc(F)cc2)s1")
14.7
>>> val("NCc1ccc(-c2nnc(N)s2)cc1")
7.7
>>> val("Nc1nnc(Cc2cccc([N+](=O)[O-])c2)s1")
15.8
>>> val("COc1cccc(CNc2nnc(N)s2)c1")
31
>>> val("Nc1nnc(-c2ccccc2)s1")
25.3
>>> val("Nc1nnc(CCc2ccccc2)s1")
7.6
>>> val("COC(=O)C(Cc1ccccc1)Nc1nnc(N)s1 (stereo not drawn)")
3.9
>>> val("Nc1nnc(NCc2ccc(Cl)c(Cl)c2)s1")
48.5
>>> val("Nc1nnc(-c2cccc(-c3ccc(C(F)(F)F)cc3)c2)s1")
6.6
>>> val("COc1ccccc1-c1nnc(N)s1")
24.1
>>> val("Nc1nnc(/C=C/c2ccccc2)s1")
34.3
>>> val("Nc1nnc(-c2ccco2)s1")
9

Reference for the values: paper PMC5623949
